Target: T1, Cynomolgus CXCR2 (cynomolgus, UniProt Q28519 3-353 (rhesus entry))
T1 construct: On transfected HEK293T or RBL-2H3 cells; native on cynomolgus neutrophils in the WBSC assay; also called cCXCR2; cynoCXCR2
T1 chain: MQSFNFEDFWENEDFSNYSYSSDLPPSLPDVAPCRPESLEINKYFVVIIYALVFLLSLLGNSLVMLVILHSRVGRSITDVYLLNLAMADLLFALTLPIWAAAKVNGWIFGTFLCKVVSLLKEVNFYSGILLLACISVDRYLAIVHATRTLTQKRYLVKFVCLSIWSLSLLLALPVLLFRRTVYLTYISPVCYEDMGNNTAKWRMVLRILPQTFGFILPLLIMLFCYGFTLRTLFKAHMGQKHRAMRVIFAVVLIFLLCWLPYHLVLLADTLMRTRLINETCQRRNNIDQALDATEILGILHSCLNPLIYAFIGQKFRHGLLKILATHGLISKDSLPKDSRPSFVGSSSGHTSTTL
Assay: FACS competition vs 3 nM FMAT-Blue Gro-α
Below is a list of entries, each paired with its recorded IC50 value.
Respond with the bare value in nM.

Lab book: IC50 of CXCR20022 (VHH, Bivalent: two VHH joined by a GlySer linker; also called 163D2-35GS-163D2; not shown: C-terminal c-myc tag and His6 tag coded by pAX100) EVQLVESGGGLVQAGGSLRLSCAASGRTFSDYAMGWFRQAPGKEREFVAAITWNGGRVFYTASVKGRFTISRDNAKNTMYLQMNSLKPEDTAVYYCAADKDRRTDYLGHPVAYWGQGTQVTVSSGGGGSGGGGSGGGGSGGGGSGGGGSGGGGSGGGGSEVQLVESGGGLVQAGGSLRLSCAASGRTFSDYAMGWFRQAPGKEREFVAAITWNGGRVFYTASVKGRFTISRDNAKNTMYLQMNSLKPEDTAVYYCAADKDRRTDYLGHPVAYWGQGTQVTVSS noted as 8.01

Lab book: IC50 of CXCR20024 (VHH, Bivalent: two VHH joined by a GlySer linker; also called 163E3-35GS-163E3; not shown: C-terminal c-myc tag and His6 tag coded by pAX100) EVQLVESGGGLVQPGGSLRLSCVASGRIFSSNAMGWFRQAPGKEREFVAAITWRSGGSAYYADSAKGRFTISRDNAKNTVYLQMNSLKPEDTAVYYCAAGGSSWLSFPPDYWGQGTQVTVSSGGGGSGGGGSGGGGSGGGGSGGGGSGGGGSGGGGSEVQLVESGGGLVQPGGSLRLSCVASGRIFSSNAMGWFRQAPGKEREFVAAITWRSGGSAYYADSAKGRFTISRDNAKNTVYLQMNSLKPEDTAVYYCAAGGSSWLSFPPDYWGQGTQVTVSS noted as 5.32

Lab book: IC50 of CXCR20031 (bispecific antibody, Biparatopic: two VHH joined by a GlySer linker; also called 2B2-35GS-163E3; not shown: C-terminal c-myc tag and His6 tag coded by pAX100) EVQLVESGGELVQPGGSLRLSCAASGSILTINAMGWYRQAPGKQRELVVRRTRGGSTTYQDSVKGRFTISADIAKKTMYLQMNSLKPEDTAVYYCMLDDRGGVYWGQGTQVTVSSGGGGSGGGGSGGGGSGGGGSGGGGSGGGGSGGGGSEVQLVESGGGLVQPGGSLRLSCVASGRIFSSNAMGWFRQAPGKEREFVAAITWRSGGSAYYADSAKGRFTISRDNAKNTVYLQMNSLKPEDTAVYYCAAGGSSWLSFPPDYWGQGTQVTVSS noted as 1.98

Lab book: IC50 of CXCR20034 (bispecific antibody, Biparatopic: two VHH joined by a GlySer linker; also called 163D2-35GS-2B2; 163D2-2B2; not shown: C-terminal c-myc tag and His6 tag coded by pAX100) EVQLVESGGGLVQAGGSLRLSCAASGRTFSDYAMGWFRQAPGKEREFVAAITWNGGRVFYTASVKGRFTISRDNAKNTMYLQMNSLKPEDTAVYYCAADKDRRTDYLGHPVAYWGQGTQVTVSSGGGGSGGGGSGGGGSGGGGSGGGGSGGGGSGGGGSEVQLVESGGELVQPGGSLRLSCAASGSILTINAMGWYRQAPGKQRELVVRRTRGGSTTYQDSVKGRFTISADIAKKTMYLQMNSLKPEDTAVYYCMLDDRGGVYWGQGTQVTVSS noted as 2.55

Lab book: IC50 of CXCR20030 (other, Biparatopic: two VHH joined by a GlySer linker; also called 163D2-35GS-54B12; 163D2-54B12; not shown: C-terminal c-myc tag and His6 tag coded by pAX100) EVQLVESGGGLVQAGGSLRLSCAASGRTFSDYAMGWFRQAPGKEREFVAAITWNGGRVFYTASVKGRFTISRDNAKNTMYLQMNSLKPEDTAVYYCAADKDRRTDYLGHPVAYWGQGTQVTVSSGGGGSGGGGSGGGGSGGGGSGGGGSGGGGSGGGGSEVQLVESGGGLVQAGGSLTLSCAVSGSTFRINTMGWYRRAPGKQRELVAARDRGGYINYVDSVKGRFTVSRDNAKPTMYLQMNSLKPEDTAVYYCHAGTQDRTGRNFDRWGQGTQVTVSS noted as 1.74
